test system: DFO2036; assay: qHTS profiling for inhibitors of Plasmodium falciparum proliferation (AID 504749); further: nearly all actives have a fitted effect of over 60% in size; settings: P. falciparum in erythrocytes, SYBR Green DNA, 72 h; series mostly up to 28.7 µM
Records with an inconclusive call do not appear. Active and inactive are the calls of the source. The call rests on the fitted dose curve; in most records, active means well fitted inhibition curve with a large enough effect; inconclusive means small, poorly fitted or top-dose-only effect; inactive means flat fitted curve, though single readings scatter.
Give one outcome, nothing more. List: 1 (yes) = active, 0 (no) = inactive

N=C(N=C(N)N)N1CCOCC1 : 0 (no)
Cc1cc2cc3c(C)cc(=O)oc3c(C)c2o1 : 0 (no)
Cc1ccc(C)c(OCCCC(C)(C)C(=O)O)c1 : 0 (no)
Clc1ccc(C(Cn2ccnc2)OCc2ccsc2Cl)c(Cl)c1 (configuration not stated) : 1 (yes)
CCCCc1ccc2nc(NC(=O)OC)[nH]c2c1 : 0 (no)

Just curious, what result did Nc1ccc(S(N)(=O)=O)cc1 get here? 0 (no)

Just curious, what result did O=C(O)CCNC(=O)c1ccc(N=Nc2ccc(O)c(C(=O)O)c2)cc1 get here? 0 (no)

Just curious, what result did CCN(CC)CCOc1ccc(Cc2ccccc2)cc1 get here? 0 (no)

Just curious, what result did O=C(O)c1cc(=O)c2c(OCC(O)COc3cccc4oc(C(=O)O)cc(=O)c34)cccc2o1 get here? 0 (no)

Just curious, what result did CCCCN(CCCC)CCC(O)c1cc2c(Cl)cc(Cl)cc2c2cc(C(F)(F)F)ccc12 (configuration not stated) get here? 1 (yes)

Just curious, what result did Oc1ccc(OCc2ccccc2)cc1 get here? 0 (no)

Just curious, what result did CC(C)[C@H](N)C(=O)OCCOCn1cnc2c(=O)[nH]c(N)nc21 get here? 0 (no)

All figures here come from PubChem BioAssay (NCATS).
